Tested on: Male DIO mice
Experiment: Metabolic parameters in diet induced obese (DIO) mice, Example 20
Assay type: in vivo, mouse
Details: 5 mg/kg/dose QD intraperitoneal, 10 days, N = 8
Description: Male C57BL/6 mice were maintained on a high fat diet for 18 weeks to develop diet induced obesity. Animals were randomized to treatment groups based on blood glucose levels and body weight. […] Body weight, blood glucose levels and food intake were monitored. Body mass distribution (fat vs lean) was determined by quantitative whole body NMR prior to dosing and at the end of dosing.
Non-standard residues stand in square brackets, D forms with d. Primed or numbered codes have the meaning given here. No end group written: not given here. PEG12(3) = not defined here
Below is a list of entries, each paired with its recorded Difference from Vehicle Control: Decrease from Baseline in Body Weight value.
measured-attribute: Difference from Vehicle Control: Decrease from Baseline in Body Weight (%)

substance="RRMMGMVEQSLCG(dA) (RRMMGMVEQSLCG[dA]) [SEQ ID NO: 38]" result_value=−3.12
substance="(PEG12)KRRMMGMVFQCLCG(dA) (KRRMMGMVFQCLCGA; N-terminal PEG12; C-terminal D-alanine; (1)..(1) PEG12; (15)..(15) d-Ala) [SEQ ID NO: 20]" result_value=−3.59
substance="RRMMGMVFQSLCG(dA) (RRMMGMVFQSLCG[dA]) [SEQ ID NO: 15]" result_value=−4.97
substance="(PEG12)KRRIIGIVFQCLCG(dA) ([PEG12(3)]KRRIIGIVFQCLCG[dA]; cysteine pairing not given here) [SEQ ID NO: 42]" result_value=−2.94

----------
Listed below: Free Fatty Acid Levels, Percent of Isoproterenol Control Activity No Insulin values for each entry.
test system: 3T3-L1 mouse adipocytes; test: Free fatty acid levels in cultured 3T3-L1 mouse adipocytes and insulin dependence (Example 17); type: cell-based; details: peptide 10 μM alone, isoproterenol 0.1 nM, relative to isoproterenol treated cells
Non-standard residues stand in square brackets, D forms with d. Primed or numbered codes have the meaning given here. No end group written: not given here. PEG12′ = polyethylene glycol moiety of 12 units
measured-attribute: Free Fatty Acid Levels, Percent of Isoproterenol Control Activity No Insulin (%)

substance="38 (RRMMGMVEQSLCG[dA]) [compound 38]" measurement_units=% result_value=101
substance="49 (MMGMVFQSLCG[dA]) [compound 49]" measurement_units=% result_value=101
substance="12 (RRMMGMVEQCLCG[dA]; cysteine pairing not given here) [compound 12]" measurement_units=% result_value=103
substance="23 (RRMVFQCLEG[dA]) [compound 23]" measurement_units=% result_value=104
substance="58 (RRMMGMVFQ) [compound 58]" measurement_units=% result_value=110
substance="30 (RRMMGMVAQCLEGA; (14)..(14) RRMMGMVAQCLEG(A) [compound 30]" measurement_units=% result_value=102
substance="20 (KRRMMGMVFQCLCGA; (1)..(1) PEG12; (15)..(15) d-Ala) [compound 20]" measurement_units=% result_value=101
substance="18 (RRXXGXVFQCLCGA; (3)..(3) Xaa is Norleucine; (4)..(4) Xaa is Norleucine; (6)..(6) Xaa is Norleucine; (14)..(14) D-Ala) [compound 18]" measurement_units=% result_value=110
substance="21 (RRMMGMVFQCLCG[dA]K(PEG12′); cysteine pairing not given here) [compound 21]" measurement_units=% result_value=109
substance="56 (RRMMGMV) [compound 56]" measurement_units=% result_value=99
substance="34 (RXMMGMVFQSLCGA; (2)..(2) Xaa is Aib (alpha-aminoisobutyric acid); (14)..(14) D-Ala) [compound 34]" measurement_units=% result_value=104
substance="14 (RRMMGMVFQCLEG[dA]) [compound 14]" measurement_units=% result_value=100
substance="63 (Ac-RRMMGMVFQSLCG[dA]-NH2) [compound 63]" measurement_units=% result_value=112
substance="53 (RMMGMVFQSL) [compound 53]" measurement_units=% result_value=101
substance="29 (RRMMGMVYQCLEG[dA]) [compound 29]" measurement_units=% result_value=110
substance="59 (RRMMGMVFQS) [compound 59]" measurement_units=% result_value=111
substance="8 (RRMMGMVFQCLCG[dA]; cysteine pairing not given here) [compound 8]" measurement_units=% result_value=106
substance="24 (RRMVYQCLEG[dA]) [compound 24]" measurement_units=% result_value=108
substance="57 (RRMMGMVF) [compound 57]" measurement_units=% result_value=96
substance="62 (RRMMGMVFQSLCG[dA]-NH2) [compound 62]" measurement_units=% result_value=112

----------
system: 3T3-L1 mouse adipocytes; experiment: Free fatty acid levels in cultured 3T3-L1 mouse adipocytes and insulin dependence (Example 17); type: cell-based; details: peptide 10 μM alone, isoproterenol 0.1 nM, relative to isoproterenol treated cells
Non-standard residues stand in square brackets, D forms with d. No end group written: not given here.
measured-attribute: Free Fatty Acid Levels, Percent of Isoproterenol Control Activity No Insulin (%)

substance="28 (RRMGYQCLEG[dA]) [compound 28]" target="3T3-L1 mouse adipocytes" measurement_units=% result_value=109
substance="50 (RMMGMVF) [compound 50]" target="3T3-L1 mouse adipocytes" measurement_units=% result_value=103
substance="39 (RRMMGMVFQSLEG[dA]) [compound 39]" target="3T3-L1 mouse adipocytes" measurement_units=% result_value=97
substance="40 (RRLLGLVEQSLCG[dA]) [compound 40]" target="3T3-L1 mouse adipocytes" measurement_units=% result_value=101
substance="52 (RMMGMVFQS) [compound 52]" target="3T3-L1 mouse adipocytes" measurement_units=% result_value=102
substance="47 (MMGMVFQS) [compound 47]" target="3T3-L1 mouse adipocytes" measurement_units=% result_value=101
substance="51 (RMMGMVFQ) [compound 51]" target="3T3-L1 mouse adipocytes" measurement_units=% result_value=99

----------
test system: C2C12 cells; assay: ATP levels in cultured C2C12 cells (CellTiter-Glo); assay type: cell-based, mouse; conditions: peptide 10 μM, 3 days with readdition every 24 hours, relative to 0.1% DMSO control
Non-standard residues stand in square brackets, D forms with d. No end group written: not given here.
measured-attribute: ATP Levels, Percent of Control Activity (%)

substance="13 (RRMMGMVFQELCG[dA]) [compound 13]" measurement_units=% result_value=102.8
substance="10 (RRMMGMVYQCLCG[dA]; cysteine pairing not given here) [compound 10]" measurement_units=% result_value=100.9
substance="16 (RRMMGMVFQCLSG[dA]) [compound 16]" measurement_units=% result_value=94.7
substance="12 (RRMMGMVEQCLCG[dA]; cysteine pairing not given here) [compound 12]" measurement_units=% result_value=102.6
substance="8 (RRMMGMVFQCLCG[dA]; cysteine pairing not given here) [compound 8]" measurement_units=% result_value=99.5
substance="14 (RRMMGMVFQCLEG[dA]) [compound 14]" measurement_units=% result_value=102.1
substance="11 (RRMMGMVAQCLCGA) [compound 11]" measurement_units=% result_value=98.0
substance="19 (RRMVFQCLCG[dA]; cysteine pairing not given here) [compound 19]" measurement_units=% result_value=93.6
substance="18 (RRXXGXVFQCLCGA; (3)..(3) Xaa is Norleucine; (4)..(4) Xaa is Norleucine; (6)..(6) Xaa is Norleucine; (14)..(14) D-Ala) [compound 18]" measurement_units=% result_value=95.5
substance="17 (RRMMGMVFQSLSG[dA]) [compound 17]" measurement_units=% result_value=100.0

----------
Quick list: Glucose Utilization, Percent of Control Activity No Insulin per entry.
test system: C2C12 cells; assay: Glucose utilization in cultured C2C12 cells and insulin dependence; type: cell-based, mouse; settings: peptide 10 μM alone, 22 h, glucose in medium relative to untreated cells
Non-standard residues stand in square brackets, D forms with d. Primed or numbered codes have the meaning given here. No end group written: not given here. PEG12′ = polyethylene glycol moiety of 12 units
measured-attribute: Glucose Utilization, Percent of Control Activity No Insulin (%)

substance="21 (RRMMGMVFQCLCG[dA]K(PEG12′); cysteine pairing not given here) [compound 21]" result_value=107.5
substance="13 (RRMMGMVFQELCG[dA]) [compound 13]" result_value=104.4
substance="10 (RRMMGMVYQCLCG[dA]; cysteine pairing not given here) [compound 10]" result_value=102.6
substance="32 (RRMEVYQCLEG[dA]) [compound 32]" result_value=103.8
substance="30 (RRMMGMVAQCLEGA; (14)..(14) RRMMGMVAQCLEG(A) [compound 30]" result_value=97.7
substance="28 (RRMGYQCLEG[dA]) [compound 28]" result_value=103.3
substance="18 (RRXXGXVFQCLCGA; (3)..(3) Xaa is Norleucine; (4)..(4) Xaa is Norleucine; (6)..(6) Xaa is Norleucine; (14)..(14) D-Ala) [compound 18]" result_value=103.6
substance="27 (RRMAYQCLEG[dA]) [compound 27]" result_value=101.2
substance="12 (RRMMGMVEQCLCG[dA]; cysteine pairing not given here) [compound 12]" result_value=102.3
substance="24 (RRMVYQCLEG[dA]) [compound 24]" result_value=98.8
substance="29 (RRMMGMVYQCLEG[dA]) [compound 29]" result_value=99.2
substance="14 (RRMMGMVFQCLEG[dA]) [compound 14]" result_value=102.4
substance="31 (RRMEVYQCLCG[dA]; not fully specified; printed as RRMEVYQCLCG(dA); cysteine pairing not given here) [compound 31]" result_value=103.7
substance="19 (RRMVFQCLCG[dA]; cysteine pairing not given here) [compound 19]" result_value=100.1
substance="22 (RRMVYQCLCG[dA]; cysteine pairing not given here) [compound 22]" result_value=100.9
substance="8 (RRMMGMVFQCLCG[dA]; cysteine pairing not given here) [compound 8]" result_value=90.8
substance="23 (RRMVFQCLEG[dA]) [compound 23]" result_value=102
substance="17 (RRMMGMVFQSLSG[dA]) [compound 17]" result_value=102.6
substance="20 (KRRMMGMVFQCLCGA; (1)..(1) PEG12; (15)..(15) d-Ala) [compound 20]" result_value=108
substance="25 (RREMVYQCLCG[dA]; cysteine pairing not given here) [compound 25]" result_value=99.9
substance="11 (RRMMGMVAQCLCGA) [compound 11]" result_value=107.2
substance="26 (RREMVYQCLEG[dA]) [compound 26]" result_value=102.2
substance="16 (RRMMGMVFQCLSG[dA]) [compound 16]" result_value=99.7
